The reported measurements were obtained from ChEMBL document CHEMBL4177736.

- Test system: BCRP (ABCG2) (Homo sapiens)
- Sequence (Q9UNQ0 whole entry): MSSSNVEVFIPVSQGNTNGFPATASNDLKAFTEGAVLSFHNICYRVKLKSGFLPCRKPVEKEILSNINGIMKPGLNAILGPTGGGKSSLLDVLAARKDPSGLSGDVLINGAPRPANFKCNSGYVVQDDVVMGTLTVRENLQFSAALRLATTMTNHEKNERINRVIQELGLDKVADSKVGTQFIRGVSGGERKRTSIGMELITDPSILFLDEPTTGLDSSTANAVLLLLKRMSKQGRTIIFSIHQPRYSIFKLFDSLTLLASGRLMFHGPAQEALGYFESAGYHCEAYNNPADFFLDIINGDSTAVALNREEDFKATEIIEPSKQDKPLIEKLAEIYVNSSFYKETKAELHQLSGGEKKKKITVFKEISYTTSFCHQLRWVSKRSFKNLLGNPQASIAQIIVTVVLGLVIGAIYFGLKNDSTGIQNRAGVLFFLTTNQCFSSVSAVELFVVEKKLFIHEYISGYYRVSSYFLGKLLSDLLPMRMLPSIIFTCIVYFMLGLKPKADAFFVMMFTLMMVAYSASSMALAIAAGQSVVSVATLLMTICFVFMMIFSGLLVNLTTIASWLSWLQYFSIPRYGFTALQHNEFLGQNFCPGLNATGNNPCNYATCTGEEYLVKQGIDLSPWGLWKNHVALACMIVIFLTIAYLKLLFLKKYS
- Procedure text: Inhibition of BCRP (unknown origin) expressed in HEK293 cells assessed as reduction in mitoxantrone efflux at 20 uM incubated for 30 mins by flow cytometric analysis relative to control
- Type: cell-based
- Assay context: HEK293 cells expressing BCRP, probe mitoxantrone
Readout: inhibition at 0.5 h, 20 µM (%)

> print(dat)
                             compound.string  reported.measurement
 1  CC[C@@H]1CN(C)[C@H]2Cc3c([nH]c4ccccc34)/C(=N/N=C\c3ccc([N+](=O)[O-])cc3)C[C@H]1[C@H]2C(=O)OC                   2.9
 2  CC[C@H]1CN(C)[C@H]2Cc3c([nH]c4ccccc34)/C(=N/N=C\c3cccc(Br)c3)C[C@H]1[C@H]2C(=O)OC                  -3.1
 3  CC[C@@H]1CN(C)[C@H]2Cc3c([nH]c4ccccc34)/C(=N/N=C\c3cccc(Cl)c3)C[C@H]1[C@H]2C(=O)OC                  -1.3
 4  CCC(/C=N\N=C1/C[C@@H]2[C@H](CC)CN(C)[C@@H](Cc3c1[nH]c1ccccc31)[C@@H]2C(=O)OC)CC                   0.9
 5  CC[C@@H]1CN(C)[C@H]2Cc3c([nH]c4ccccc34)/C(=N/N=C\c3cccc(Br)c3)C[C@H]1[C@H]2C(=O)OC                  -2.4
 6  CC[C@H]1CN(C)[C@H]2Cc3c([nH]c4ccccc34)/C(=N/N=C\c3ccc([N+](=O)[O-])cc3)C[C@H]1[C@H]2C(=O)OC                   2.2
 7  CC[C@@H]1CN(C)[C@H]2Cc3c([nH]c4ccccc34)/C(=N/N=C\C=C\c3ccccc3)C[C@H]1[C@H]2C(=O)OC                    -2
 8  CC[C@H]1CN(C)[C@H]2Cc3c([nH]c4ccccc34)/C(=N/N=C\C(C)(C)C)C[C@H]1[C@H]2C(=O)OC                   2.4
 9  CC[C@H]1CN(C)[C@H]2Cc3c([nH]c4ccccc34)/C(=N/N=C\c3ccc[nH]3)C[C@H]1[C@H]2C(=O)OC                  13.5
10  CC[C@H]1CN(C)[C@H]2Cc3c([nH]c4ccccc34)/C(=N/N=C\c3ccccc3[N+](=O)[O-])C[C@H]1[C@H]2C(=O)OC                   4.5
11  CC[C@@H]1CN(C)[C@H]2Cc3c([nH]c4ccccc34)/C(=N/N=C\C(C)(C)C)C[C@H]1[C@H]2C(=O)OC                   1.3
12  CC[C@H]1CN(C)[C@H]2Cc3c([nH]c4ccccc34)/C(=N/N=C\C=C\c3ccccc3)C[C@H]1[C@H]2C(=O)OC                  -0.3
13  CC[C@@H]1CN(C)[C@H]2Cc3c([nH]c4ccccc34)/C(=N/N=C\C3CCCC3)C[C@H]1[C@H]2C(=O)OC                  -2.3
14  CC[C@H]1CN(C)[C@H]2Cc3c([nH]c4ccccc34)/C(=N/N=C\c3ccc(O)c(OC)c3)C[C@H]1[C@H]2C(=O)OC                  10.5
